- procedure.text: Lipophilicity, log P of the compound
- Type: physicochemical
- conditions: octanol/water
property.name: logP
Lab note: record just the number, no unit beside it.

Q: Given `O=c1c2ccccc2n(CCCCl)c2ccc(Cl)cc12` , respond with its logP.
Result: 1.38

Q: Given `O=c1c2ccccc2n(CCCCN2CCN(CCO)CC2)c2ccc(Cl)cc12` , respond with its logP.
Result: 2.25

Q: Given `O=c1c2ccccc2n(CCCCN(CCO)CCO)c2ccc(Cl)cc12` , respond with its logP.
Result: 1.67

Q: Given `CCN(CC)CCCn1c2ccccc2c(=O)c2cc(Cl)ccc21` , respond with its logP.
Result: 1.54

Q: Given `O=c1c2ccccc2n(CCCN2CCCCC2)c2ccc(Cl)cc12` , respond with its logP.
Result: 1.52

Q: Given `O=c1c2ccccc2n(CCCN2CCN(CCO)CC2)c2ccc(Cl)cc12` , respond with its logP.
Result: 1.76

Q: Given `O=c1c2ccccc2n(CCCCN2CCCC2)c2ccc(Cl)cc12` , respond with its logP.
Result: 1.74

Q: Given `O=c1c2ccccc2n(CCCCN2CCOCC2)c2ccc(Cl)cc12` , respond with its logP.
Result: 1.89

Q: Given `CN1CCN(CCCCn2c3ccccc3c(=O)c3cc(Cl)ccc32)CC1` , respond with its logP.
Result: 1.95

Q: Given `CN1CCN(CCCn2c3ccccc3c(=O)c3cc(Cl)ccc32)CC1` , respond with its logP.
Result: 1.48

Q: Given `CCN(CC)CCCCn1c2ccccc2c(=O)c2cc(Cl)ccc21` , respond with its logP.
Result: 1.9
